# run.description: Form inter-conversion by stirring in TBME/ethanol/water (20/5/1, v/v/v)
# Type: physicochemical
# condition.notes: TBME/ethanol/water (20/5/1, v/v/v) at 18-23° C. for 4 days
property: Output form after stirring in solvent

COCCOCCOCCOc1cccc(C2=N[C@@](C)(C(=O)[O-])CS2)c1[O-].[Na+].[Na+] [Form D]    converted into Form A
COCCOCCOCCOc1cccc(C2=N[C@@](C)(C(=O)[O-])CS2)c1[O-].[Na+].[Na+] [Form C]    converted into Form A
COCCOCCOCCOc1cccc(C2=N[C@@](C)(C(=O)[O-])CS2)c1[O-].[Na+].[Na+] [Form B]    converted into Form A
